Origin of the recorded values: PubChem BioAssay AID602438

- experimental_target: Neuropilin-1 (Homo sapiens)
- protocol_notes: NRP-1/CendR peptide interaction modulators – biochemical, fluorescence polarization, uHTS, primary screen (AID 602438)
- test_parameters: FAM-RPARPAR peptide binding to NRP-1, fluorescence polarization; at 25 µM; hits give high values
Screen size: about 360,000 compounds; about 3,100 (0.86%) were called active. The entries come from a sample that favours actives as a whole.
parameter: inhibition (%)
Provide only the numeric value, understood in %.

I have this compound here, Cc1ccc2cccc([N+](=O)[O-])c2n1 , and I need its recorded inhibition.
-4.4

I have this compound here, Cc1cc(NS(=O)(=O)c2ccc(NC(=O)C(C)Oc3cccc(C)c3C)cc2)nc(C)n1 (stereo not drawn) , and I need its recorded inhibition.
-7.8

I have this compound here, CC1(C(=O)Nc2ccc3c(c2)OCCO3)CN(S(C)(=O)=O)CC(=O)N1Cc1cccc(F)c1 (stereo not drawn) , and I need its recorded inhibition.
-4.8

I have this compound here, CCc1oc(-c2ccc(OC)cc2)c(C(=O)OCCCCCO)c1C(C)OCCO (stereo not drawn) , and I need its recorded inhibition.
23

I have this compound here, COc1ccc2oc(N)c(C=O)c(=O)c2c1 , and I need its recorded inhibition.
13.3

I have this compound here, O=C1CC2(CCCCC2)Oc2ccc(OCC(=O)N3CCOCC3)cc21 , and I need its recorded inhibition.
0.6

I have this compound here, O=C(Nc1cccc(OCC(=O)N2CCOCC2)c1)C1CCCCC1 , and I need its recorded inhibition.
21.3

I have this compound here, CCOc1ccc(CCNC(=O)C2=C(C)C(=O)OC23CCC(C)CC3)cc1OCC (stereo not drawn) , and I need its recorded inhibition.
-1.3

I have this compound here, COc1ccc(CNC(=O)C2CCN(S(C)(=O)=O)CC2)cc1 , and I need its recorded inhibition.
-11.1

I have this compound here, CCOC(=O)N1CCN(C(=O)CNC(=O)Cc2ccc(Cl)cc2)CC1 , and I need its recorded inhibition.
24.6

I have this compound here, CCc1c(N=O)c(-c2ccccc2)n(O)[n+]1[O-] , and I need its recorded inhibition.
5.4

I have this compound here, CCOC(=O)C1(Cc2ccccc2C(F)(F)F)CCN(C(=O)c2cc(C)n(C)n2)CC1 , and I need its recorded inhibition.
-5.9

I have this compound here, O=C(Oc1ccc([N+](=O)[O-])cc1)c1ccc2ccccc2n1 , and I need its recorded inhibition.
6.3

I have this compound here, Nn1c(SCC(=O)NC(=O)NC2CCCC2)nnc1-c1ccccc1F , and I need its recorded inhibition.
-0.3

I have this compound here, COc1cc(/C=C/C(=O)OCC(=O)Nc2cccc(Oc3ccccc3)c2)ccc1O , and I need its recorded inhibition.
-3.6

I have this compound here, Cc1ccc(CN2CCCOCCS2(=O)=O)cc1 , and I need its recorded inhibition.
4

I have this compound here, Clc1ccc(Cc2nnc(-c3cccs3)o2)cc1 , and I need its recorded inhibition.
-15.6

I have this compound here, CCOC(=O)N1CCN(C(=O)Cc2ccc(-n3c(=S)[nH]c4ccccc4c3=O)cc2)CC1 , and I need its recorded inhibition.
2.6

I have this compound here, O=[N+]([O-])c1cc2ccccc2nc1-c1ccccc1 , and I need its recorded inhibition.
20.7

I have this compound here, CCN(CCCCOC(=O)c1ccc(OC)c(OC)c1)C(C)Cc1ccc(OC)cc1 (stereo not drawn) , and I need its recorded inhibition.
-0.7

I have this compound here, Cc1ccn2c(c1)nc(=O)c1cc(S(=O)(=O)N3CCC(C)CC3)ccc12 , and I need its recorded inhibition.
-3.9

I have this compound here, COc1ccc(CNC(=O)C2CCN(C(=O)c3ccco3)CC2)cc1 , and I need its recorded inhibition.
-1

I have this compound here, CC(OC(=O)c1cccnc1Cl)C(=O)NC1CCCCC1 (stereo not drawn) , and I need its recorded inhibition.
0.1
